- METHOD SUMMARY: qHTS RealTime-Glo MT Cell Viability Assay in HepG2 cells - 8 hour (AID 1224873); note: nearly all actives have a fitted effect of over 55% in size
- REPORTED CONDITIONS: RealTime-Glo luminescence; series mostly up to 76.8 µM
Inconclusive results are not listed. Activity calls are given as the source filed them. Calls come from the whole dose curve; as a rule, active = well fitted cell-killing curve with a large enough effect in the repeat runs; inconclusive = weak or mixed curves; inactive = flat fitted curve, though single readings scatter.
OBSERVATION TYPE: outcome

Some solved cases for reference:
Nc1cc(Cl)c(N)c(Cl)c1 = inactive
C/C=C/C(=O)N(CC)c1ccccc1C = inactive
OC[C@H]1O[C@@H]2O[C@H]3[C@H](O)[C@@H](O)[C@@H](O[C@H]4[C@H](O)[C@@H](O)[C@@H](O[C@H]5[C@H](O)[C@@H](O)[C@@H](O[C@H]6[C@H](O)[C@@H](O)[C@@H](O[C@H]7[C@H](O)[C@@H](O)[C@@H](O[C@H]1[C@H](O)[C@H]2O)O[C@@H]7CO)O[C@@H]6CO)O[C@@H]5CO)O[C@@H]4CO)O[C@@H]3CO = inactive
COC(=O)c1ccc(C)cc1 = inactive
CCOC(=O)C(C)Oc1ccc(Oc2cnc3cc(Cl)ccc3n2)cc1 (stereo not given) = inactive
CCCCCCC(C)O (stereo not given) = inactive
CCCCCC1C(=O)CCC1CC(=O)OC (stereo not given) = inactive
COc1cc([C@H]2Oc3cc([C@H]4Oc5cc(O)cc(O)c5C(=O)[C@@H]4O)ccc3O[C@@H]2CO)ccc1O = inactive
NCCS(=O)(=O)O = inactive

// below: outcome requested for another molecule
Item under review: c1ccc2cc3ccccc3cc2c1 . Reported outcome?
inactive

Values were extracted from PubChem BioAssay (Tox21).
